test.system: T1, alanine aminotransferase (Homo sapiens, UniProt P24298)
T1 chain: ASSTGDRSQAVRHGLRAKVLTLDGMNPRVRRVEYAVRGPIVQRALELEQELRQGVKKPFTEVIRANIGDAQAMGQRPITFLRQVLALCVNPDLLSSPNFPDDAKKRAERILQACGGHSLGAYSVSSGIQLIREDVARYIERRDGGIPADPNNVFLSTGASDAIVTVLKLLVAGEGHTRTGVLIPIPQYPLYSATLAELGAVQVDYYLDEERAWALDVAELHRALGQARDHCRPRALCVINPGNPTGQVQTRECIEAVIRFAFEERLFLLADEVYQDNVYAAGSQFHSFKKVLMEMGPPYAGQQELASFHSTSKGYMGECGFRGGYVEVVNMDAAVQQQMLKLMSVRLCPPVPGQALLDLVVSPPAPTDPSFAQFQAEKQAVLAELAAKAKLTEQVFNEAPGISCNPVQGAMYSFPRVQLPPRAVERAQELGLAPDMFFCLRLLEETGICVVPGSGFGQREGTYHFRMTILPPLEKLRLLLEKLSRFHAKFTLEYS
protocol.details: enzyme inhibition kinetics
property: Ki (µM)
// note: answer is a bare numeric in µM

Give the measured Ki of WHWRNPDFWYLK [ALT5-8 peptide] .
0.071
